For each entry below, report its log10 of TGI value.
# System: HOP-92 NSCLC
# measurement notes: NCI tumour cell line growth inhibition, 48 h
Scale: log10; quantity: TGI; unit before log: µM

Consider `Cc1cc(C)c2c(=N)c3ccccc3n(CCCCCCO)c2n1` . Its measured log10 of TGI is 1.20

Short answer for `CC1=C(Cl)C[C@@H](/C(C)=C\Cl)O[C@@]1(O)C(Br)Br` : log10 of TGI was 1.73

Measured log10 of TGI, COc1cc2c(c(OC)c1OC)-c1c(cc3c(c1OC)OCO3)CC(C)C(C)(O)C2OC(=O)c1ccccc1 (centres undefined) : 1.87

The molecule identified as `CC[C@H]1C=CCC[C@@]2(C[C@@H]3CC[C@@H]4[C@H](C(=O)OCCCCCCCCCCCCCCCC(=O)N(CCCN)CCCCN)[C@]5(CCC[C@@H](C)O5)NC(=[N+]34)N2)O1` registered its log10 of TGI at -0.71

The reported value for O=C1CCC(N2C(=O)c3cccc(NCCCC4CCN(CCNC(=O)c5cc6c(o5)C(=O)c5ccccc5C6=O)CC4)c3C2=O)C(=O)N1 (centres undefined) in terms of log10 of TGI is 1.18

----------
# System: HCT-15 colon
# measurement notes: NCI tumour cell line growth inhibition, 48 h
# TGI >= 10 µM gives YES, anything below gives NO

Confirm if TGI reported for the molecule `Oc1c(Cl)cc(Cl)c2cccnc12` is 10 µM or above.
YES

Is it the case that CCOC(=O)C(NC(=O)CC)(Nc1ccc(S(=O)(=O)Nc2nc(C)cc(C)n2)cc1)C(F)(F)F (stereo not given) has TGI reaching or exceeding 10 µM?
YES

TGI >= 10 µM for `Cc1ccnc(NC(=S)Nc2cccc(Cl)c2)c1` ?
YES

Assess whether reported TGI for `O=[N+]([O-])c1ccc2c(Nc3ccccc3-c3ccccc3Nc3c4ccccc4nc4cc([N+](=O)[O-])ccc34)c3ccccc3nc2c1` sits at 10 µM or higher.
YES

Tell me whether TGI is at least 10 µM here: `CN(C)Cc1cc(C(=O)/C=C/c2cccc(Cl)c2)cc(CN(C)C)c1O`
YES

Please check the record `CCOC(=O)/C(C#N)=C(/NNc1ccccc1)c1ccncc1C(=O)O` and state if its TGI is at or above 10 µM.
YES

Would you say `O=c1cccc(C#CC#CCCCO)o1` shows TGI at minimum 10 µM?
NO

Would you say CCN(CC)CCCC(C)Nc1c(Sc2cnc3cc(Cl)ccc3c2NC(C)CCCN(CC)CC)cnc2cc(Cl)ccc12 (stereo not given) shows TGI at minimum 10 µM?
NO

Could you tell me if the measured TGI of `CCCCCn1c(=O)c2c(=O)[nH][nH]c2c2ccccc21` reaches 10 µM or more?
YES

----------
# Tested on: RXF-631 renal
# measurement notes: NCI tumour cell line growth inhibition, 48 h
Please respond with reported TGI for every item in the list.
Lab book: enter the figure in µM, no units written.

For reference, reported TGI for `COc1ccc(Cc2nc3ccccc3s2)cc1OC` stands at 31.7

Record `COCCOCOC(C)(C)[C@H](CCOC(C)=O)O[Si](c1ccccc1)(c1ccccc1)C(C)(C)C` , field TGI: 43.1

Summary for this molecule, `COC1=CC(=O)c2c(O)c3c(c(O)c2C1=O)C[C@](C)(O)C[C@@H]3O` : TGI is 11.2
